System: biotinyl-Leu-oxazolone
Assay: self-aminoacylation, catalytic enhancement (BLO) (fold over background); higher = more active; k-Seq, kA / k0A0; sequences stand for … in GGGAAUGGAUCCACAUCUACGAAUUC…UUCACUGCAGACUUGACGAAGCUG
This sample holds only a part of the variants without activity.
Please note: t applies when self-aminoacylation is 3 or greater, and f applies otherwise.

Observe how each entry below is paired with its result.
- chain_sequence: "CCACACUUCAUGCGAUCGGUC [Fam1B.1 aminoacylation ribozyme variant]"
  qualitative_label: "f"
- chain_sequence: "AAUCACCUAGGUCAUCGGGUA [Fam2.2 aminoacylation ribozyme variant]"
  qualitative_label: "t"
- chain_sequence: "AUACUUCAAUCAAUCGGUCUG [Fam1A.1 aminoacylation ribozyme variant]"
  qualitative_label: "f"
- chain_sequence: "AACUUUUCUAAUAGUCGCAAG [Fam3.1 aminoacylation ribozyme variant]"
  qualitative_label: "f"
- chain_sequence: "AUUCACCUAGGUCAUGGGAUG [Fam2.2 aminoacylation ribozyme variant]"
  qualitative_label: "f"

Now take the following sequence into account.
[ask] # check: self-aminoacylation of AGGUUUGCUAAUAGCCGCAAG [Fam3.1 aminoacylation ribozyme variant] is greater than or equal to 3
[reply] f

###

Test system: biotinyl-Phe-oxazolone
Assay: self-aminoacylation, catalytic enhancement (BFO) (fold over background); higher = more active; k-Seq, kA / k0A0; sequences stand for … in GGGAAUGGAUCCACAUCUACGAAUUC…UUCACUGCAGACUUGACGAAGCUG
This sample holds only a part of the variants without activity.
Records here are stratified by self-aminoacylation; strata: low-valued (below 1), mid-valued (1 to below 3), high-valued (3 or more)

Observe how each entry below is paired with its result.
- chain_sequence: "AAGUUUGCUAAUAGUCGUAAU [Fam3.1 aminoacylation ribozyme variant]"
  qualitative_label: "mid-valued"
- chain_sequence: "CUACUUCAACCAAGCGGUCUG [Fam1A.1 aminoacylation ribozyme variant]"
  qualitative_label: "low-valued"
- chain_sequence: "UUACUUCGAACAAUCGGUCUG [Fam1A.1 aminoacylation ribozyme variant]"
  qualitative_label: "mid-valued"
- chain_sequence: "AAGUUAGCUGAUAGUCGCAAG [Fam3.1 aminoacylation ribozyme variant]"
  qualitative_label: "mid-valued"
- chain_sequence: "AUUACCCUGGUAAUCGAGUCA [Fam2.1 aminoacylation ribozyme variant]"
  qualitative_label: "low-valued"
- chain_sequence: "AAUUUUGCUAUUAGUCGCAAG [Fam3.1 aminoacylation ribozyme variant]"
  qualitative_label: "mid-valued"
- chain_sequence: "AUUCACCGGGGUCAUCGGGUG [Fam2.2 aminoacylation ribozyme variant]"
  qualitative_label: "high-valued"
- chain_sequence: "UUUACCCUGGUCAUCGAGUUA [Fam2.1 aminoacylation ribozyme variant]"
  qualitative_label: "high-valued"

Now take the following sequence into account.
[ask] Band for AGUACCCUGCUCAUCGAGUGA [Fam2.1 aminoacylation ribozyme variant] ?
[reply] mid-valued

###

Could you please report measured self-aminoacylation for the items listed next?
Tested on: biotinyl-Leu-oxazolone
Experiment: self-aminoacylation, catalytic enhancement (BLO) (fold over background); higher = more active; k-Seq, kA / k0A0; sequences stand for … in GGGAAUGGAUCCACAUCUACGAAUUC…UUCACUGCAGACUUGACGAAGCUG
Variants at the floor of the assay were thinned out.
One number for each entry.

- chain_sequence: "AUUUACUUAGGUCAUCGGGUG [Fam2.2 aminoacylation ribozyme variant]"
  readout_value: 5.78
- chain_sequence: "CCACACUUCGAGCAAUCGGUU [Fam1B.1 aminoacylation ribozyme variant]"
  readout_value: 1.1
- chain_sequence: "CCACACUUCAAGCAAUCGGGU [Fam1B.1 aminoacylation ribozyme variant]"
  readout_value: 1.87
- chain_sequence: "AAUCACCUAGGUCAUCGGGGG [Fam2.2 aminoacylation ribozyme variant]"
  readout_value: 3.66
- chain_sequence: "CCACAUUUCAAACAAUCGGUC [Fam1B.1 aminoacylation ribozyme variant]"
  readout_value: 1.31

Please give self-aminoacylation for each item listed below.
1. CUAAUUCAAACCAUCGGUCUG [Fam1A.1 aminoacylation ribozyme variant]
2. AAGUUUGCUCAUACUCGCAAG [Fam3.1 aminoacylation ribozyme variant]

[reply]
1: 0.949; 2: 0.715

[ask] Look at this sequence and give its reported self-aminoacylation. AUCACCCUGGUCAACGAGUGA [Fam2.1 aminoacylation ribozyme variant]
[reply] 10.6
